assay: Efflux ratio of apparent permeability across basolateral to apical membrane over apical to basolateral membrane in human Caco2 cells; type: ADME, cell-based; conditions: Caco-2
Please go through the items and note down their efflux ratio.

Please supply the value of reported efflux ratio for the item "Cc1noc(-c2ccc3nc(Nc4cc(CN5CCN(C(=O)C6CC6)CC5)ccn4)[nH]c3c2)n1"
2.2

Please supply the value of reported efflux ratio for the item C[C@H](c1ccnc(Nc2nc3ccc(-c4cc(N(C)C)ncn4)cc3[nH]2)c1)N1CCN(C(=O)CC(F)(F)F)CC1 [BAY-985]
17

Please supply the value of reported efflux ratio for the item "O=C(CC(F)(F)F)N1CCN(Cc2ccnc(Nc3nc4ccc(-c5cnn(CC6CC6)c5)cc4[nH]3)c2)CC1"
3.9

Please supply the value of reported efflux ratio for the item "N#Cc1ccc2nc(Nc3cc(CN4CCN(C(=O)CC(F)(F)F)CC4)ccn3)[nH]c2c1"
8.3

Please supply the value of reported efflux ratio for the item "Cc1noc(-c2ccc3nc(Nc4cc([C@H](C)N5CCN(C(=O)CC(F)(F)F)CC5)ccn4)[nH]c3c2)n1"
0.7

Please supply the value of reported efflux ratio for the item "CCn1cc(-c2ccc3nc(Nc4cc(CN5CCN(C(=O)CC(F)(F)F)CC5)ccn4)[nH]c3c2)cn1"
10

Please supply the value of reported efflux ratio for the item "Cc1noc(-c2ccc3nc(Nc4cc([C@@H](C)N5CCN(C(=O)CC(F)(F)F)CC5)ccn4)[nH]c3c2)n1"
0.8

Please supply the value of reported efflux ratio for the item "Cc1noc(-c2ccc3nc(Nc4cc(CN5CCN(C(=O)CC(F)(F)F)CC5)ccn4)[nH]c3c2)n1"
3.4

====

Target: Serine/threonine-protein kinase TBK1 (Homo sapiens, UniProt Q9UHD2)
Sequence (Q9UHD2 whole entry): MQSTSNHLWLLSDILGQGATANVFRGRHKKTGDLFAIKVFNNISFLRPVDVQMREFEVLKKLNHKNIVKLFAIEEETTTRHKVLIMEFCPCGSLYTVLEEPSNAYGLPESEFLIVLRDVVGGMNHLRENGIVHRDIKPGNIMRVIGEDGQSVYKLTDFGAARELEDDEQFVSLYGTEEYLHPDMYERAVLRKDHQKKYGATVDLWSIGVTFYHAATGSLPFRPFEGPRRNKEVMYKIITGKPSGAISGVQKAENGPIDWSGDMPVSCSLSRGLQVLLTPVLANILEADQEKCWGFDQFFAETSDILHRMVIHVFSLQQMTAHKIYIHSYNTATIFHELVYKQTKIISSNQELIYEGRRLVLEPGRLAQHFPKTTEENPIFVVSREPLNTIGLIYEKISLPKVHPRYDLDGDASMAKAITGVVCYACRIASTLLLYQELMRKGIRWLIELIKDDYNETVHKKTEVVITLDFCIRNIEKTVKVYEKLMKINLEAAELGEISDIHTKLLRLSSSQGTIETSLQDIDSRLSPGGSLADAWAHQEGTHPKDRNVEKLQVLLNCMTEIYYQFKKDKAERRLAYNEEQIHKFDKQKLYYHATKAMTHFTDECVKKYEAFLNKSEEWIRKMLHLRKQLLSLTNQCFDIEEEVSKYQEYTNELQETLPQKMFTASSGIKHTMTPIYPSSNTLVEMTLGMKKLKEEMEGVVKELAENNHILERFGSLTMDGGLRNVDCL
Assay: Inhibition of recombinant full length human N-terminal His-tagged TBK1 using biotin-labelled Ahx-GDEDFSSFAEPG peptide as substrate preincubated with enzyme for 15 mins followed by substrate addition and further incubated for 30 mins in presence of 1 mM of ATP by TR-FRET assay
measure: log10 IC50 (log10 of the value in nM)
Log scale reminder: IC50 in nM, then log10 taken.

Please supply the value of reported log10 IC50 for the item "Cc1noc(-c2ccc3nc(Nc4cc(CN5CCN(C(=O)c6ccco6)CC5)ccn4)[nH]c3c2)n1"
3.71

Please supply the value of reported log10 IC50 for the item "Cn1cc(-c2ccc3nc(Nc4cc(CN5CCN(C(=O)CC(F)(F)F)CC5)ccn4)[nH]c3c2)cn1"
3.32

Please supply the value of reported log10 IC50 for the item "Cc1noc(-c2ccc3nc(Nc4cc([C@@H](C)N5CCN(C(=O)CC(F)(F)F)CC5)ccn4)[nH]c3c2)n1"
2.57

Please supply the value of reported log10 IC50 for the item "Cc1noc(-c2ccc3nc(Nc4cc(CN5CCN(C(=O)CC6CC6)CC5)ccn4)[nH]c3c2)n1"
3.28

Please supply the value of reported log10 IC50 for the item "C[C@H](c1ccnc(Nc2nc3ccc(-c4cnn(CC5CCC5)c4)cc3[nH]2)c1)N1CCN(C(=O)CC(F)(F)F)CC1"
0.78

Please supply the value of reported log10 IC50 for the item "Cc1noc(-c2ccc3nc(Nc4cc(CN5CCN(C(=O)C6CC6)CC5)ccn4)[nH]c3c2)n1"
3.10
